- PROTOCOL DETAILS: COS7 lysate on small-molecule microarray, probe aHis, 635 nm (AID 1123);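 also: z-score combines 667nm fluorescence intensity with signal-to-noise per printed compound spot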
- RECORDED CONDITIONS: COS7 cell lysate, fluorescence, higher = more signal
MEASURED ATTRIBUTE: composite z-score

Query :: Look up composite z-score: `COc1ccc([Si](C)(C)[C@@H]2[C@@H](CCO)O[C@]3(C(=O)N(Cc4cccc(N(C=O)c5ccccc5)c4)c4ccccc43)[C@H]2C)cc1`
Result :: 0.46

Query :: Reported composite z-score for CCCCN1CC=CC23O[C@@H]4/C=C\CCCOC(=O)C4[C@H]2C(=O)N(C(C)CO)[C@@H]3C1=O (stereo not given in full) : what is it?
Result :: 0.296

Query :: So what does the record say about composite z-score for CC(C)OC(=O)C1=CCC(c2cccc(Cl)c2)O1 (stereo not given) ?
Result :: 2.72

Query :: Given `C#C[C@H](O[Si](C#CCCCCCC)(C(C)C)C(C)C)c1ccccc1` , state its recorded composite z-score.
Result :: 0.43

***
Query :: Given the molecule CCOC(=O)N1C(c2ccc(OCCCO)cc2)=NC(C(=O)OC)N1C(=O)OCC (stereo not given) , what is its reported composite z-score?
Result :: 1.73

---

Provide the recorded z-score for the entries that follow.
- PROTOCOL DETAILS: budding yeast growth modifiers under rapamycin – strain BY4716, OD600, 96 h, primary screen (AID 1091); also: test concentration not given here
- RECORDED CONDITIONS: S. cerevisiae BY4716 + rapamycin, higher = more signal, called active from +8 up or from −8 down
Active and inactive are the calls of the source.

Reference set, count: 8
Query :: Reported z-score, molecule Cc1cc(C)c(C(O)C2C=CC3C(=O)NC(=O)C3N2Nc2ccccn2)c(C)c1 (centres undefined) : ____
Result :: 0.415 (inactive)

Query :: If you can, please state the reported z-score value of `CCOC(=O)C1=C[C@@H](C(C)(C)C)N(S(=O)(=O)c2ccc(C)cc2)[C@H]1c1ccc(Cl)c(Cl)c1` .
Result :: 2.44 (inactive)

Query :: Which z-score reading was recorded for the molecule `COC(=O)[C@@]1(Cc2ccc(F)cc2)[C@H]2c3cc(C(=O)N4CCCC4)n(Cc4ccc(Cl)c(C(F)(F)F)c4)c3C[C@H]2CN1C(=O)c1ccccc1` ?
Result :: 3.84 (inactive)

Query :: Any idea what z-score was measured for `O=C(CS)NCCCCCNC(=O)[C@H]1C[C@H]2C(=O)N[C@@H](Cc3ccccc3)C(=O)N2[C@H]1c1cccc(OCCO)c1` ?
Result :: -0.276 (inactive)

Query :: Quick check: z-score of `COc1ccc([Si](C)(C)[C@@H]2[C@@H](CC(=O)N3Cc4ccccc4C[C@H]3CO)O[C@]3(C(=O)N(Cc4cccc(N5C(=O)COc6ccccc65)c4)c4ccccc43)[C@H]2C)cc1` ?
Result :: 3.67 (inactive)

Query :: Fill blank: measured z-score of the molecule `COc1ccc(C(=O)Nc2cccc(CN3C(=O)[C@@]4(O[C@@H](CC(=O)N5Cc6ccccc6C[C@H]5CO)[C@H]([Si](C)(C)c5ccc(OC)cc5)[C@H]4C)c4ccccc43)c2)cc1` is ____.
Result :: 1.22 (inactive)

Query :: # lookup: z-score of `C=CC[C@@]1(C(=O)OC)N=C(c2ccc(OCCCO)cc2)O[C@@H]1c1ccccc1CN=[N+]=[N-]`
Result :: 6.32 (inactive)

Query :: Form field: reported z-score of C=CCC(OC(C)=O)[C@@H]1[C@@H](N(Cc2cc3ccccc3o2)C(=O)c2ccc(C)cc2)c2cc(OCCCO)ccc2N1C(=O)c1ccc(-c2ccccc2)cc1 (some centres undefined)
Result :: -2.17 (inactive)

// batch mode: one z-score value per listed entry
1. CCCCCCCCCCC(O)C1C=CC2C(=O)N(c3ccccc3)C(=O)C2N1Nc1ccc([N+](=O)[O-])cc1 (centres undefined)
2. O=C1OCCC/C=C\[C@H]2OC34C=CCN(CCN5CCOCC5)C(=O)[C@H]3N(CCO)C(=O)[C@@H]4C12 (some centres undefined)
3. O=C(NCc1ccccc1)[C@@H]1c2ccccc2C(=O)N(Cc2cc(F)cc(C(F)(F)F)c2)[C@H]1c1ccc(CO)cc1
4. COCCOC(=O)N1C(=O)[C@@]2(c3cc(C#Cc4ccc(OC)cc4)ccc31)[C@H](C(N)=O)[C@H]1C(=O)O[C@H](c3ccccc3)[C@H](c3ccccc3)N1[C@@H]2c1ccc(O)cc1
5. C=C(C(=O)CC[C@@H](OC(=O)c1cccnc1)c1ccc(OCCO)cc1)C(C)C
6. COC(=O)[C@@]1(Cc2ccc(F)cc2)[C@H]2c3cc(C(=O)N(C)C)n(CCCNc4ccc(C(F)(F)F)cc4Cl)c3C[C@H]2CN1C(=O)c1ccccc1

Result ::
["26.7 (active)", "-0.131 (inactive)", "-0.319 (inactive)", "0.333 (inactive)", "-4.75 (inactive)", "5.11 (inactive)"]

---

- PROTOCOL DETAILS: compound effects on lung adenocarcinoma cell viability – A549, calcein-AM fluorescence, 48 h, basal, profiling panel (AID 1162); also: test concentration not given here
- RECORDED CONDITIONS: higher = more signal
MEASURED ATTRIBUTE: z-score
Give bare numbers.

Query :: Quick check: z-score of `C=C(CCCC)C(=O)CC[C@H](OC(=O)c1ccccc1-c1ccccc1C(=O)O)c1ccc(CO)o1` ?
Result :: 0.0743

Query :: Query: z-score; subject: `COc1ccc(C#Cc2ccc3c(c2)[C@]2(C(=O)N3)[C@H](C(=O)N3CCN(c4ncccn4)CC3)[C@H]3C(=O)O[C@H](c4ccccc4)[C@H](c4ccccc4)N3[C@@H]2c2ccc(O)cc2)cc1`
Result :: -0.125

Query :: For the compound `O=C1O[C@H](c2ccccc2)[C@H](c2ccccc2)N2[C@H]1[C@@H](C(=O)Nc1nc3ccccc3s1)[C@]1(C(=O)Nc3ccc(C#CC4=CCCCC4)cc31)[C@H]2c1ccc(OCCO)cc1` , what z-score is on record?
Result :: -0.641

Query :: What does the data say about its z-score? Entry: `COC(=O)[C@@]1(Cc2ccc(OC)cc2)[C@H]2c3cc(C(=O)N4CCCC4)n(CCN4CCOCC4)c3C[C@H]2CN1C(=O)c1ccccc1`
Result :: -1.35

Query :: What does the record list as z-score for `Cc1cccc(/C=C/C=O)c1` ?
Result :: 0.175

Query :: Which z-score is reported for this compound? `C=CCN1C(=O)[C@@]2(O[C@@H](CCO)[C@H]([Si](C)(C)c3ccc(OC)cc3)[C@H]2C)c2cc(NC(C)=O)ccc21`
Result :: 0.103

Query :: z-score for `CC(C)C[C@@H]1NC(=O)[C@@H]2C[C@H](C(=O)NCCCCN(C)C)[C@H](c3ccc(O)cc3)N2C1=O` ?
Result :: -0.583

Query :: Look up z-score: `[N-]=[N+]=Nc1ccccc1C[C@]1(C(=O)N2CCCCC2)N=C(c2ccc(OCCCO)cc2)O[C@H]1c1ccccc1N=[N+]=[N-]`
Result :: -0.0955

Your task in this section: give z-score for each listed record.
1. Cn1c2c(c3ccccc31)C(=O)C1NC2C=CC1(C)C(=O)OCc1ccccc1 (stereo not given)
2. COCC1=C([C@H](O)CCc2ccccc2)[C@H](CO)[C@@H]2C(=O)N(Cc3ccccc3)C(=O)[C@@H]2C1
3. COc1ccc([Si](C)(C)[C@H]2[C@H](CC(=O)N3CCC[C@H]3CO)O[C@@]3(C(=O)N(Cc4cccc(N5CCC5=O)c4)c4ccccc43)[C@@H]2C)cc1
4. O=C1C2C=CC(C(O)c3ccccn3)N(Nc3ccccc3F)C2C(=O)N1c1ccccc1 (stereo not given)
5. C=CC[C@@]1(C(N)=O)N=C(c2ccc(OCCCO)cc2)O[C@@H]1c1ccccc1N=[N+]=[N-]
6. Cc1cc(C)c(C(O)C2C=CC3C(=O)NC(=O)C3N2Nc2ccccn2)c(C)c1 (stereo not given)
7. COC(=O)[C@@]1(Cc2ccccc2)[C@H]2c3cc(C(=O)N(C)C)n(Cc4ccccc4)c3C[C@H]2CN1C(=O)c1ccccc1

Result ::
1. -0.618
2. 0.883
3. -0.246
4. -0.922
5. 1.38
6. -0.948
7. -1.19

---

What z-score was measured for each of the following?
- PROTOCOL DETAILS: S. pombe growth modifiers, basal conditions – strain 972, OD600, 24 h, no modulator, primary screen (AID 1090);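 also: basal condition with compound alone and no growth modifier present; test concentration not given here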
- RECORDED CONDITIONS: S. pombe 972 growth, higher = more signal, called active from +8 up or from −8 down
Numbers only.

Some compounds with recorded z-score:
Query :: Form field: reported z-score of Cn1c2c(c3ccccc31)C(=O)C1NC2C=CC1(C)C(=O)OCc1ccccc1 (configuration not stated)
Result :: 0.35

Query :: Please give the measured z-score for this compound: `[N-]=[N+]=NCc1ccccc1C[C@]1(C(=O)NCCN2CCOCC2)N=C(c2ccc(OCCCO)cc2)O[C@H]1c1ccccc1CN=[N+]=[N-]`
Result :: -0.847

Query :: For the compound `O=[N+]([O-])c1ccc(C[n+]2ccc(CCCO)cc2)o1` , what z-score is on record?
Result :: -12.9

Batch request: z-score for each of the following compounds.
1. O=C1OCCC/C=C\[C@H]2OC34C=CCN(Cn5nnc6ccccc65)C(=O)[C@H]3N(CCCO)C(=O)[C@@H]4C12 (some centres not stated)
2. C[N+](C)(C)CCCCNC(=O)[C@H]1C[C@H]2C(=O)N3CCC[C@H]3C(=O)N2[C@H]1c1ccc(O)cc1
3. C=CCOC(=O)[C@H]1[C@@H]2C(=O)O[C@@H](c3ccccc3)[C@@H](c3ccccc3)N2[C@@H](c2ccc(OCCOC(=O)[C@H]3C[C@H]4C(=O)N[C@@H](CCCC[N+](C)(C)C)C(=O)N4[C@H]3c3ccc(O)cc3)cc2)[C@]12C(=O)Nc1ccccc12
4. [N-]=[N+]=Nc1ccccc1C[C@]1(C(=O)N2CCCCC2)N=C(c2ccc(OCCCO)cc2)O[C@H]1c1ccccc1N=[N+]=[N-]

Result ::
[0.0555, 0.0211, -2.55, -10.4]
